Origin of the recorded values: patent US8354402B2

- Tested on: ApoB secretion, HepG2 cells
- protocolSummary: Quantification of the secretion of ApoB (HepG2 cells, immunoprecipitation, scintillation counting)
- Assay type: cell-based
- reportedConditions: Homo sapiens, HepG2, 24 h, 24 hours of incubation
measuredEndpoint: pIC50
Friendly reminder that pIC50 comes from taking -log10 of the concentration in mol/L.

molecule="CCNC(=O)C(c1ccccc1)C1CCN(c2ccc(NC(=O)c3ccccc3-c3ccc(C)cc3)cc2)CC1 (centres unmarked)" recordednumber=7.36
molecule="C=CCOC(=O)C(c1ccccc1)N1CCC(c2ccc(NC(=O)c3ccccc3-c3ccc(C(F)(F)F)cc3)cc2)CC1 (centres unmarked)" recordednumber=7.03
molecule="O=C(Nc1ccc(C2CCN(C(C(=O)NCc3ccccc3)c3ccccc3)CC2)cc1)c1ccccc1-c1ccccc1 (centres unmarked)" recordednumber=7.16

(Q) # pIC50 lookup, item O=C(Nc1ccc(N2CCN(C(C(=O)NCc3ccccc3)c3ccccc3)CC2)cc1)c1ccccc1-c1ccccc1 (centres unmarked)
(A) 7.60

(Q) So what does the record say about pIC50 for COC(=O)C(c1ccccc1)N1CCN(c2ccc(NC(=O)c3cccc(C)c3-c3ccc(C(F)(F)F)cc3)cc2)CC1 (centres unmarked) ?
(A) 8.19

(Q) What does the data say about its pIC50? Entry: O=C(Nc1ccc(N2CCC(C(C(=O)OCCCc3ccccc3)c3ccccc3)CC2)cc1)c1ccccc1-c1ccc(C(F)(F)F)cc1 (centres unmarked)
(A) 6.76

(Q) So what does the record say about pIC50 for CCCNC(=O)C(c1ccccc1)C1CCN(c2ccc(NC(=O)c3ccccc3Oc3ccccc3)cc2)CC1 (centres unmarked) ?
(A) 6.58

(Q) Find the recorded pIC50 belonging to COC(=O)C(c1ccccc1)N1CC=C(c2ccc(NC(=O)c3ccccc3-c3ccccc3)cc2)CC1 (centres unmarked) and report it.
(A) 6.92

(Q) pIC50 for O=C(Nc1ccc(N2CCN(C(C(=O)OCc3ccccc3)c3ccccc3)CC2)cc1)c1ccccc1-c1ccc(C(F)(F)F)cc1 (centres unmarked) ?
(A) 6.94

(Q) Entry under review: CCNC(=O)C(c1ccccc1)C1CCN(c2ccc(NC(=O)c3ccccc3-c3cccc(Cl)c3)cc2)CC1 (centres unmarked) . Reported pIC50?
(A) 7.08

(Q) Looking for the measured pIC50 of CCNC(=O)C(c1ccccc1)C1CCN(c2ccc(NC(=O)c3ccccc3-c3cccc(C(F)(F)F)c3)cc2)CC1 (centres unmarked) , can you help?
(A) 7.49

(Q) Which measured pIC50 value corresponds to O=C(Nc1ccc(N2CCC(C(C(=O)NCc3ccccc3)c3ccccc3)CC2)cc1)c1ccccc1-c1cccc(C(F)(F)F)c1 (centres unmarked) ?
(A) 7.04

(Q) Looking for the measured pIC50 of O=C(Nc1ccc(N2CCC(C(C(=O)Nc3ccccc3)c3ccccc3)CC2)cc1)c1ccccc1-c1ccc2ccccc2c1 (centres unmarked) , can you help?
(A) 7.00

(Q) Any idea what its pIC50 is? The molecule is C=CCNC(=O)C(c1ccccc1)N1CCN(c2ccc(NC(=O)c3ccccc3-c3ccccc3)cc2)CC1 (centres unmarked)
(A) 7.22

---

- Tested on: ApoB secretion, HepG2 cells
- protocolSummary: Quantification of the secretion of ApoB (HepG2 cells, immunoprecipitation, scintillation counting)
- Assay type: cell-based
- reportedConditions: Homo sapiens, HepG2, 24 h, 24 hours of incubation
measuredEndpoint: pIC50
Just so you know, pIC50 here is -log10 of the concentration in molar units; reply with that number alone.

compound="CCNC(=O)C(c1ccccc1)C1CCN(c2ccc(NC(=O)c3ccccc3-c3ccc(Cl)cc3)cc2)CC1 (stereo not shown)" assayedtarget="ApoB secretion, HepG2 cells" recordednumber=8.06
compound="CCCNC(=O)C(c1ccccc1)C1CCN(c2ccc(NC(=O)c3ccccc3-c3ccc(OC)cc3)cc2)CC1 (stereo not shown)" assayedtarget="ApoB secretion, HepG2 cells" recordednumber=6.34

(Q) Consider the compound COC(=O)C(c1ccccc1)N1CCCN(c2ccc(NC(=O)c3ccccc3-c3ccc(C(F)(F)F)cc3)cc2)CC1 (stereo not shown) and give its measured pIC50.
(A) 6.76

(Q) I would be grateful if you could share the reported pIC50 for O=C(Nc1ccc(N2CCC(C(C(=O)OCc3ccccc3)c3ccccc3)CC2)cc1)c1ccccc1-c1ccc(C(F)(F)F)cc1 (stereo not shown) .
(A) 7.04
